Reference source: ChEMBL document CHEMBL1153640

- Assay notes: Dissociation constant, pKa of the compound
- Type: physicochemical
Readout type: pKa

1. CC1CCN(C(=O)c2ccc3cc(OC4CCN(C(C)C)CC4)ccc3c2)CC1 :: 9.6
2. CC1CCN(C(=O)c2ccc3cc(OC4CCN(C(C)C)C4)ccc3c2)CC1 (stereo not given) :: 9.4
3. CC(C)N1[C@@H]2CC(Oc3ccc4nc(C(=O)N5CCOCC5)ccc4c3)CC[C@H]1C2 (stereo not given in full) :: 8.97
4. COC1CCN(C(=O)c2ccc3cc(OC4CCN(C(C)C)CC4)ccc3n2)CC1 :: 9.5
5. COC1CCN(C(=O)c2ccc3cc(OC4CCN(C(C)C)CC4)ccc3c2)CC1 :: 9.4
6. CC(C)N1CCC(Oc2ccc3cc(C(=O)N4CCCC4C)ccc3c2)CC1 (stereo not given) :: 9.71
7. CC(C)N1CCC(Oc2ccc3cc(C(=O)N4CCC(CO)CC4)ccc3c2)CC1 :: 9.6
8. CC1CCN(C(=O)c2ccc3cc(OCCCN4CCOCC4)ccc3c2)CC1 :: 7.8
9. CC(C)CN1CCC(Oc2ccc3cc(C(=O)N4CCC(C)CC4)ccc3c2)CC1 :: 9.8
10. COC1CCN(C(=O)c2ccc3cc(OCCCN4CCCCC4)ccc3c2)CC1 :: 9.57
